Where do these numbers come from? They come from ChEMBL document CHEMBL1201862.

Each entry below carries its reported GI50.
# System: RXF 393
# ASSAY_PROCEDURE: NCI tumour cell line growth inhibition, 48 h
Activity calls are given as the source filed them. Rule as the data show it: active = GI50 up to about 1.1 µM and inactive = higher.
METRIC: GI50

MOLECULE | EXPERIMENTAL_VALUE
COC(=O)C(C)(/N=C/c1ccccc1)c1ccccc1 (stereo not given) | > 100 µM (inactive)
CC1=C2[C@H](c3ccccc3)C3C=CC2(c2ccccc23)N(C(=O)C(c2ccccc2)c2ccccc2)C1=O (stereo not given in full) | > 100 µM (inactive)
Cc1nc2ccc(S(=O)(=O)Nc3ccccn3)cc2c(=O)n1NS(=O)(=O)c1ccccn1 | > 100 µM (inactive)
CCOC(=O)c1c(N2CCOCC2)ncn(-c2cccc(Cl)c2)c1=O | > 100 µM (inactive)
Cc1ccc2c(c1C)CC1(Cc3c(C)ccc(C)c3C1=O)C2=O (stereo not given) | > 100 µM (inactive)
CCCCc1ccc(-n2sc3ncc(-c4ccccc4)cc3c2=O)cc1 | > 100 µM (inactive)
COC(=O)CCCCC/C(=C\C(=O)C(Cl)(Cl)Cl)OC | 16.7 µM (inactive)
c1ccc(-c2nnc(-c3nn(-c4ccccc4)c4nc5ccccc5nc34)o2)cc1 | 4.3 µM (inactive)
O=[N+]([O-])c1cccc(C2N3CCCCC3[C@@H]3c4[nH]c5ccccc5c4CCN23)c1 (stereo not given in full) | 5.86 µM (inactive)
C=C1C(=O)OC2C3C(=C)[C@@H](OC(C)=O)CC3C(C)=CC(OC(=O)C(C)(OC(C)=O)C(C)OC(C)=O)[C@@H]12 (stereo not given in full) | 12.3 µM (inactive)
